assay text: First-in-human single-ascending-dose study: plasma pharmacokinetics
Format: in vivo
assay context: human, plasma, po, 20 mg, single oral 20 mg fasted, powder-in-bottle, n = 6, geometric mean (CV %)
endpoint label: AUC(0-inf)
A complete answer gives the number and then names the unit.

Qu. For the molecule CS(=O)(=O)c1ccc(-c2cnc(N)c(-c3ccc(C(F)(F)F)nc3)c2)cc1 , report AUC(0-inf).
Ans. 33300 ng·h/mL

----------
assay text: First-in-human single-ascending-dose study: plasma pharmacokinetics
Assay type: in vivo
assay context: human, plasma, oral, all cohorts, powder-in-bottle, read-out: elimination half-life
Description: (i) First-in-human study. The study was conducted in five fasted cohorts (5, 20, 40, 80, and 120 mg) and one fed 40-mg cohort. […] Doses administered to subsequent cohorts were determined a priori after consideration of interim human pharmacokinetic and safety data. […] Blood samples from the three studies were analyzed at the University of Cape Town Division of Clinical Pharmacology Laboratory. […]
endpoint label: half-life

Qu. Look up and state reported half-life for CS(=O)(=O)c1ccc(-c2cnc(N)c(-c3ccc(C(F)(F)F)nc3)c2)cc1
Ans. > 6.21 days
